Assay: Caco-2 assay (permeability PappAB, PappBA, efflux ratio)
Type: in vitro ADME
Conditions: human, Caco-2; apical to basolateral; 10 μM test compound, pH 7.4
# binarize Papp A→B at 90 min, 10 μM: threshold 2 ×10⁻⁶ cm/s inclusive, high side Fulfilled, low side Not fulfilled

| cpd_smiles | cat |
| --- | --- |
| C[C@H](Oc1cc(-c2cncnc2)nc(-c2noc3c2CCC[C@@]32CCCc3sc(N)c(C#N)c32)n1)[C@@H]1CCCN1C | Fulfilled |
| CO[C@@H]1C[C@@H]([C@H](C)Oc2cc(-c3ccn(C)n3)nc(-c3noc4c3CCC[C@@]43CCCc4sc(N)c(C#N)c43)n2)N(C)C1 | Fulfilled |
| C[C@H]1CN(C)CCCN1c1cc(N2CC[C@H](N(C)C)C2)nc(-c2noc3c2CCC[C@@]32CCCc3sc(N)c(C#N)c32)n1 | Not fulfilled |
| C[C@H](Oc1cc(-n2ccnc2)nc(-c2onc3c2CCC[C@@]32CCCc3sc(N)c(C#N)c32)n1)[C@@H]1CCCN1C | Fulfilled |
| C[C@H](Oc1cc(N2CCNC(C)(C)C2)nc(-c2noc3c2CCC[C@@]32CCCc3sc(N)c(C#N)c32)n1)[C@@H]1CCCN1C | Not fulfilled |
| Cc1cn(-c2cc(O[C@@H](C)[C@@H]3CCCN3C)nc(-c3noc4c3CCC[C@@]43CCCc4sc(N)c(C#N)c43)n2)nn1 | Fulfilled |
| CO[C@@H]1C[C@@H]([C@H](C)Oc2cc(N3CCN(C)C4(CC4)C3)nc(-c3noc4c3CCC[C@@]43CCCc4sc(N)c(C#N)c43)n2)N(C)C1 | Fulfilled |
| CNC(=O)c1ccn(-c2cc(O[C@@H](C)[C@@H]3CCCN3C)nc(-c3noc4c3CCC[C@@]43CCCc4sc(N)c(C#N)c43)n2)n1 | Fulfilled |
| C[C@H](Oc1cc(-n2ccc(-c3ccccn3)n2)nc(-c2noc3c2CCC[C@@]32CCCc3sc(N)c(C#N)c32)n1)[C@@H]1CCCN1C | Not fulfilled |
| C[C@H](Oc1cc(-n2ccnc2)nc(-c2noc3c2CCC[C@@]32CCCc3sc(N)c(C#N)c32)n1)[C@@H]1C[C@@H](F)CN1C | Fulfilled |

###

Assay: Plasma protein binding assay (PPB), equilibrium dialysis, 10% FCS in PBS
Assay type: in vitro ADME
Settings: bovine, read-out: PPB 10% FCS (% fu)
fraction unbound vs 0.3: less than gives T; not less than gives F.

| molecule | cat |
| --- | --- |
| C[C@H](Oc1cc(N2CC3CCC(C2)N3)nc(-c2noc3c2CCC[C@@]32CCCc3sc(N)c(C#N)c32)n1)[C@@H]1CCCN1C | F |
| C[C@H](Oc1cc(N2CCN(C)C3(CCOC3)C2)nc(-c2noc3c2CCC[C@@]32CCCc3sc(N)c(C#N)c32)n1)[C@@H]1C[C@@H](F)CN1C (stereo partly shown) | T |
| Cc1nc(-c2cc(O[C@@H](C)[C@@H]3CCCN3C)nc(-c3onc4c3CCC[C@@]43CCCc4sc(N)c(C#N)c43)n2)cs1 | T |
| CN[C@H]1CCN(c2cc(O[C@@H](C)[C@@H]3CCCN3C)nc(-c3noc4c3CCC[C@@]43CCCc4sc(N)c(C#N)c43)n2)C1 | F |
| C[C@H](Oc1cc(N2CC[C@H](N(C)C)C2)nc(-c2noc3c2CCC[C@@]32CCCc3sc(N)c(C#N)c32)n1)[C@@H]1C[C@@H](F)CN1C | F |
| C[C@H](Oc1cc(-c2cnn(C)n2)nc(-c2noc3c2CCC[C@@]32CCCc3sc(N)c(C#N)c32)n1)[C@@H]1CCCN1C | F |
| CC(C)N1CCCN(c2cc(-c3ccn(C)n3)nc(-c3noc4c3CCC[C@@]43CCCc4sc(N)c(C#N)c43)n2)[C@@H](C)C1 | F |
| CO[C@H]1CCN(C)[C@@H]1[C@H](C)Oc1cc(-n2ccc(C(=O)N[C@H]3CCOC3)n2)nc(-c2onc3c2CCC[C@@]32CCCc3sc(N)c(C#N)c32)n1 | T |
| C[C@H](Oc1cc(N2CCC[C@H](O)C2)nc(-c2noc3c2CCC[C@@]32CCCc3sc(N)c(C#N)c32)n1)[C@@H]1CCCN1C | F |
| C[C@H](Oc1cc(C2=CCOCC2)nc(-c2noc3c2CCC[C@@]32CCCc3sc(N)c(C#N)c32)n1)[C@@H]1CCCN1C | T |
| C[C@H](Oc1cc(-c2ccn([C@H]3CCCOC3)n2)nc(-c2noc3c2CCC[C@@]32CCCc3sc(N)c(C#N)c32)n1)[C@@H]1CCCN1C | T |
| C[C@H](Oc1cc(N2CCNC[C@]23CCOC3)nc(-c2noc3c2CCC[C@@]32CCCc3sc(N)c(C#N)c32)n1)[C@@H]1CCCN1C | F |
| C[C@H](Oc1cc(-c2ccn3ncnc3c2)nc(-c2onc3c2CCC[C@@]32CCCc3sc(N)c(C#N)c32)n1)[C@@H]1CCCN1C | F |

###

System: KRAS G12V-dependent Ba/F3 cells
Test: Ba/F3 proliferation assay, KRAS G12V;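 further: proliferation IC50 in KRAS G12V-dependent Ba/F3 cells read by AlamarBlue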
Assay type: cell-based
Conditions: Mus musculus, BaF3, 72 h, AlamarBlue
measurement_label: log10 of IC50 (log10 of the value in nM)

| molecule | measured_target | log10 of IC50 |
| --- | --- | --- |
| C[C@H](Oc1cc(-n2ccnn2)nc(-c2onc3c2CCC[C@@]32CCCc3sc(N)c(C#N)c32)n1)[C@@H]1CCCN1C | KRAS G12V-dependent Ba/F3 cells | 0.48 |
| C[C@H](Oc1cc(C2CCCO2)nc(-c2noc3c2CCC[C@@]32CCCc3sc(N)c(C#N)c32)n1)[C@@H]1CCCN1C (stereo partly shown) | KRAS G12V-dependent Ba/F3 cells | 1.15 |
| C[C@H](Oc1cc(N2CCN(CCO)CC2)nc(-c2noc3c2CCC[C@@]32CCCc3sc(N)c(C#N)c32)n1)[C@@H]1CCCN1C | KRAS G12V-dependent Ba/F3 cells | 2.50 |
| C[C@H](Oc1cc(-n2ccc(C(=O)O)n2)nc(-c2noc3c2CCC[C@@]32CCCc3sc(N)c(C#N)c32)n1)[C@@H]1CCCN1C | KRAS G12V-dependent Ba/F3 cells | 3.91 |
| C[C@H](Oc1cc(N2CCNC3(CCC3)C2)nc(-c2onc3c2CCC[C@@]32CCCc3sc(N)c(C#N)c32)n1)[C@@H]1CCCN1C | KRAS G12V-dependent Ba/F3 cells | 2.55 |
| C[C@H](Oc1cc(-n2ccc(C(=O)N[C@@H]3CCOC3)n2)nc(-c2noc3c2CCC[C@@]32CCCc3sc(N)c(C#N)c32)n1)[C@@H]1CCCN1C | KRAS G12V-dependent Ba/F3 cells | 0.30 |
| C[C@H](Oc1cc(-c2cnsc2)nc(-c2onc3c2CCC[C@@]32CCCc3sc(N)c(C#N)c32)n1)[C@@H]1CCCN1C | KRAS G12V-dependent Ba/F3 cells | 0.85 |
| CO[C@H]1CCN(C)[C@@H]1[C@H](C)Oc1cc(-n2ccc(C(=O)N[C@H]3CCOC3)n2)nc(-c2noc3c2CCC[C@@]32CCCc3sc(N)c(C#N)c32)n1 | KRAS G12V-dependent Ba/F3 cells | 0.00 |
| C[C@H](Oc1cc(N2CCOC3(CC3)C2)nc(-c2noc3c2CCC[C@@]32CCCc3sc(N)c(C#N)c32)n1)[C@@H]1CCCN1C | KRAS G12V-dependent Ba/F3 cells | 1.58 |
| C[C@H](Oc1cc(-c2cn(C3COC3)nn2)nc(-c2noc3c2CCC[C@@]32CCCc3sc(N)c(C#N)c32)n1)[C@@H]1CCCN1C | KRAS G12V-dependent Ba/F3 cells | 1.72 |
| CCOC(=O)c1ccn(-c2cc(O[C@@H](C)[C@@H]3CCCN3C)nc(-c3noc4c3CCC[C@@]43CCCc4sc(N)c(C#N)c43)n2)n1 | KRAS G12V-dependent Ba/F3 cells | 0.60 |
| COCCNC(=O)c1ccn(-c2cc(O[C@@H](C)[C@@H]3[C@@H](OC)CCN3C)nc(-c3onc4c3CCC[C@@]43CCCc4sc(N)c(C#N)c43)n2)n1 | KRAS G12V-dependent Ba/F3 cells | 0.00 |
| C[C@H](Oc1cc(-n2cc3ccn(C4CCOCC4)c(=O)c3n2)nc(-c2noc3c2CCC[C@@]32CCCc3sc(N)c(C#N)c32)n1)[C@@H]1CCCN1C | KRAS G12V-dependent Ba/F3 cells | 0.48 |

###

Assay: Plasma protein binding assay (PPB), equilibrium dialysis, 10% FCS in PBS
Format: in vitro ADME
Settings: bovine, read-out: PPB 10% FCS (% fu)
# binarize fraction unbound: threshold 0.1 inclusive, high side met, low side not met

| cpd_smiles | cat |
| --- | --- |
| C[C@H](Oc1cc(-c2ccc(N)nc2)nc(-c2noc3c2CCC[C@@]32CCCc3sc(N)c(C#N)c32)n1)[C@@H]1CCCN1C | met |
| C[C@H](NC(=O)c1ccn(-c2cc(O[C@@H](C)[C@@H]3CCCN3C)nc(-c3onc4c3CCC[C@@]43CCCc4sc(N)c(C#N)c43)n2)n1)c1ccccn1 | not met |
| C[C@H](Oc1cc([C@@H]2CCN(C)C2)nc(-c2noc3c2CCC[C@@]32CCCc3sc(N)c(C#N)c32)n1)[C@@H]1CCCN1C | met |
| C[C@H](Oc1cc(-c2cccc(CO)c2)nc(-c2noc3c2CCC[C@@]32CCCc3sc(N)c(C#N)c32)n1)[C@@H]1CCCN1C | met |
| C[C@H](Oc1nc(-c2onc3c2CCC[C@@]32CCCc3sc(N)c(C#N)c32)cc(N2CCNC3(CC3)C2)n1)[C@@H]1CCCN1C | met |
| C[C@H](Oc1cc(-n2cc(C3CC3)nn2)nc(-c2noc3c2CCC[C@@]32CCCc3sc(N)c(C#N)c32)n1)[C@@H]1CCCN1C | not met |
| CO[C@H]1CCN(C)[C@@H]1[C@H](C)Oc1cc(-n2ccc(C(N)=O)n2)nc(-c2noc3c2CCC[C@@]32CCCc3sc(N)c(C#N)c32)n1 | not met |
| C[C@H](Oc1cc(-n2cc3ccn(C4CCOCC4)c(=O)c3n2)nc(-c2noc3c2CCC[C@@]32CCCc3sc(N)c(C#N)c32)n1)[C@@H]1CCCN1C | not met |
| C[C@H](Oc1cc(N2CCN[C@@H](C)C2)nc(-c2noc3c2CCC[C@@]32CCCc3sc(N)c(C#N)c32)n1)[C@@H]1CCCN1C | met |
| C[C@H](Oc1cc(N2C[C@@H](N(C)C)[C@@H](O)C2)nc(-c2noc3c2CCC[C@@]32CCCc3sc(N)c(C#N)c32)n1)[C@@H]1CCCN1C | met |
| C[C@H](Oc1nc(-c2noc3c2CCC[C@@]32CCCc3sc(N)c(C#N)c32)nc(N2CCN(C)C3(CC3)C2)c1Cl)[C@@H]1C[C@@H](F)CN1C | not met |
| C[C@H](Oc1cc(N2CCNC[C@@]23CCOC3)nc(-c2onc3c2CCC[C@@]32CCCc3sc(N)c(C#N)c32)n1)[C@@H]1CCCN1C | met |
| C[C@H](Oc1cc(-n2ccc(C(=O)NC3(C)COC3)n2)nc(-c2noc3c2CCC[C@@]32CCCc3sc(N)c(C#N)c32)n1)[C@@H]1CCCN1C | met |
| C[C@H](Oc1cc(-c2cn(C3CCOCC3)nn2)nc(-c2noc3c2CCC[C@@]32CCCc3sc(N)c(C#N)c32)n1)[C@@H]1CCCN1C | met |
| C[C@H](Oc1cc(-c2ccn(C[C@@H]3CCCO3)n2)nc(-c2noc3c2CCC[C@@]32CCCc3sc(N)c(C#N)c32)n1)[C@@H]1CCCN1C | met |
| CO[C@@H]1C[C@@H]([C@H](C)Oc2cc(N3CCN(C)C4(CC4)C3)nc(-c3onc4c3CCC[C@@]43CCCc4sc(N)c(C#N)c43)n2)N(C)C1 | met |
| C[C@H]1CNCCCN1c1nc(-c2onc3c2CCC[C@@]32CCCc3sc(N)c(C#N)c32)cc(C(F)(F)F)n1 | not met |
| CO[C@@H]1C[C@@H]([C@H](C)Oc2cc(N3CCN(C)C4(COC4)C3)nc(-c3noc4c3CCC[C@@]43CCCc4sc(N)c(C#N)c43)n2)N(C)C1 | met |
| COCCNC(=O)c1ccn(-c2cc(O[C@@H](C)[C@@H]3[C@@H](OC)CCN3C)nc(-c3onc4c3CCC[C@@]43CCCc4sc(N)c(C#N)c43)n2)n1 | not met |
| C[C@H](Oc1cc(N2CCNC3(CC3)C2)nc(-c2noc3c2CCC[C@@]32CCCc3sc(N)c(C#N)c32)n1)[C@@H]1CCCN1C | met |
| C[C@H](Oc1cc(N2CC[C@@H](O)C2)nc(-c2noc3c2CCC[C@@]32CCCc3sc(N)c(C#N)c32)n1)[C@@H]1CCCN1C | met |
| C[C@H](Oc1nc(-c2noc3c2CCC[C@@]32CCCc3sc(N)c(C#N)c32)nc(N2C[C@H](C)NC3(CC3)C2)c1F)[C@@H]1C[C@@H](F)CN1C | not met |
| C[C@H](Oc1cc(N2CCNC[C@@]23CCOC3)nc(-c2noc3c2CCC[C@@]32CCCc3sc(N)c(C#N)c32)n1)[C@@H]1CCCN1C | met |
